- measured_target: MMUT (methylmalonyl-CoA mutase) (Homo sapiens)
- Sequence (P22033 33-750): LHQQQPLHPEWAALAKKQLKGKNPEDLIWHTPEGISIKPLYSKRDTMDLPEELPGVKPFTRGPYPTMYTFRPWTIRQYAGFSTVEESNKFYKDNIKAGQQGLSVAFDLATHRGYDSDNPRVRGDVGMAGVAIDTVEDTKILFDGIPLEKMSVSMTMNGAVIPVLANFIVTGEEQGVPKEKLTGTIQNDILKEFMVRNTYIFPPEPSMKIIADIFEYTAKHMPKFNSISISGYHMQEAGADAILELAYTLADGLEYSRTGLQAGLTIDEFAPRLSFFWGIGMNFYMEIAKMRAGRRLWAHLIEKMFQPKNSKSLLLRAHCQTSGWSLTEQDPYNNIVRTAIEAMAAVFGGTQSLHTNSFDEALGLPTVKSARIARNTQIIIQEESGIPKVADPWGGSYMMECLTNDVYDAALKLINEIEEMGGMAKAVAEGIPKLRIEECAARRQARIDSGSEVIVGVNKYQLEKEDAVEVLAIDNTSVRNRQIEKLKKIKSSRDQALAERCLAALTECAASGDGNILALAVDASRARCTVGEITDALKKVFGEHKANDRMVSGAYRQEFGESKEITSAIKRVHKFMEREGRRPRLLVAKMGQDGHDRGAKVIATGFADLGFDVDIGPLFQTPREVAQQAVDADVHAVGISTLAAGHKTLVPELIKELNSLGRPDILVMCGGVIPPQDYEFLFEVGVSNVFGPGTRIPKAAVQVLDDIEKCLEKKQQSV
- assay_explanation: Coupled thiokinase/DTNB spectrophotometric MMUT activity assay
- Format: biochemical
- settings: coupled spectrophotometric assay
measured_quantity: MMUT activity with the cobamide (in words)

- molecule: "C/C1=C2/[N-][C@H]([C@H](CC(N)=O)[C@@]2(C)CCC(=O)NC[C@@H](C)OP(=O)([O-])O[C@H]2[C@@H](O)[C@@H](Oc3ccc(C)cc3)O[C@@H]2CO)[C@]2(C)N=C(/C(C)=C3N=C(/C=C4N=C1[C@@H](CCC(N)=O)C\\4(C)C)[C@@H](CCC(N)=O)[C@]\\3(C)CC(N)=O)[C@@H](CCC(N)=O)[C@]2(C)CC(N)=O.[CH2-][C@H]1O[C@@H](n2cnc3c(N)ncnc32)[C@H](O)[C@@H]1O.[Co+3] [Ado[Cre]Cba]"
  reported_result: "active"
- molecule: "C/C1=C2/[N-][C@H]([C@H](CC(N)=O)[C@@]2(C)CCC(=O)NC[C@@H](C)OP(=O)([O-])O[C@H]2[C@@H](O)[C@@H](n3cnc4cc(C)c(C)cc43)O[C@@H]2CO)[C@]2(C)N=C(/C(C)=C3N=C(/C=C4N=C1[C@@H](CCC(N)=O)C\\4(C)C)[C@@H](CCC(N)=O)[C@]\\3(C)CC(N)=O)[C@@H](CCC(N)=O)[C@]2(C)CC(N)=O.[CH2-][C@H]1O[C@@H](n2cnc3c(N)ncnc32)[C@H](O)[C@@H]1O.[Co] [AdoCbl, adenosylcobalamin, reference compound]"
  reported_result: "active"

---

- measured_target: MMUT (methylmalonyl-CoA mutase) (Homo sapiens)
- assay_explanation: Coupled thiokinase/DTNB spectrophotometric MMUT activity assay
- Assay type: biochemical
- settings: coupled spectrophotometric assay
measured_quantity: MMUT activity with the cobamide (in words)

- compound: "C/C1=C2/[N-][C@H]([C@H](CC(N)=O)[C@@]2(C)CCC(=O)NC[C@@H](C)OP(=O)([O-])O[C@H]2[C@@H](O)[C@@H](Oc3ccccc3)O[C@@H]2CO)[C@]2(C)N=C(/C(C)=C3N=C(/C=C4N=C1[C@@H](CCC(N)=O)C\\4(C)C)[C@@H](CCC(N)=O)[C@]\\3(C)CC(N)=O)[C@@H](CCC(N)=O)[C@]2(C)CC(N)=O.[CH2-][C@H]1O[C@@H](n2cnc3c(N)ncnc32)[C@H](O)[C@@H]1O.[Co+3] [Ado[Phe]Cba, adenosylphenolylcobamide]"
  reported_result: "active"
- compound: "C/C1=C2/[N-][C@H]([C@H](CC(N)=O)[C@@]2(C)CCC(=O)NC[C@@H](C)OP(=O)([O-])O[C@H]2[C@@H](O)[C@@H](n3cnc4ccccc43)O[C@@H]2CO)[C@]2(C)N=C(/C(C)=C3N=C(/C=C4N=C1[C@@H](CCC(N)=O)C\\4(C)C)[C@@H](CCC(N)=O)[C@]\\3(C)CC(N)=O)[C@@H](CCC(N)=O)[C@]2(C)CC(N)=O.[CH2-][C@H]1O[C@@H](n2cnc3c(N)ncnc32)[C@H](O)[C@@H]1O.[Co+3] [Ado[Bza]Cba]"
  reported_result: "active"
- compound: "C/C1=C2/[N-][C@H]([C@H](CC(N)=O)[C@@]2(C)CCC(=O)NC[C@@H](C)OP(=O)([O-])O[C@H]2[C@@H](O)[C@@H](n3cnc4cc(C)ccc43)O[C@@H]2CO)[C@]2(C)N=C(/C(C)=C3N=C(/C=C4N=C1[C@@H](CCC(N)=O)C\\4(C)C)[C@@H](CCC(N)=O)[C@]\\3(C)CC(N)=O)[C@@H](CCC(N)=O)[C@]2(C)CC(N)=O.[CH2-][C@H]1O[C@@H](n2cnc3c(N)ncnc32)[C@H](O)[C@@H]1O.[Co+3] [Ado[5-MeBza]Cba]"
  reported_result: "active"

Recorded values, source paper PMC8682075.
